experimental.target: FAAH (Homo sapiens (Human))
protocol.description: Assay Method 1: FAAH assay, T84 cell homogenate, 3H-anandamide hydrolysis
Type: biochemical
condition.summary: 3H-AEA tracer 200 nM, 1 h at rt
Experimental: T84 frozen pellets (contents of 1-4×15 cm culture dishes) were homogenized in 300 mL of FAAH assay buffer (125 mM Tris, 1 mM EDTA, 0.2% glycerol, 0.02% Triton X-100, 0.4 mM Hepes, pH 9). The assay mixture was prepared from 50 μL of the cell homogenate, 10 μL of the test compound, and 40 μL of anandamide [1-3H-ethanolamine] (^3H-AEA; Perkin-Elmer, 10.3 Ci/mmol), which was added last, for a final tracer concentration of 200 nM. The reaction mixture was incubated at rt for 1 hour (h). […]
Quick reference for pIC50 among some molecules
Reminder that pIC50 is minus the log10 of a molar concentration.

Solved entries (count: 5):
# molecule, reported.endpoint, test.result
data = [
    ("O=C(Nc1ccccc1Cl)N1CCC(Cc2ccccc2)CC1", "pIC50", 5.40),
    ("O=C(Nc1ccccc1)N1CCN(Cc2cccc(-c3ccccc3)c2)CC1", "pIC50", 6.39),
    ("Cc1ccc(CN2CCN(C(=O)Nc3ccccc3)CC2)cc1 [Example E, reference compound]", "pIC50", 5.89),
    ("Cc1ccc(NC(=O)N2CCN(Cc3ccc(Br)c(Br)c3)CC2)cc1", "pIC50", 6.33),
    ("O=C(Nc1ccc(F)cc1)N1CCN(Cc2ccc3c(c2)OCO3)CC1 [Example G, reference compound]", "pIC50", 5.80),
]

The molecule O=C(Nc1ccccc1)N1CCN(Cc2ccc(Cl)c(C(F)(F)F)c2)CC1 on FAAH (Homo sapiens (Human)): pIC50 was 7.10

The molecule O=C(Nc1ccc(F)cc1)N1CCN(Cc2ccc(Br)c(Br)c2)CC1 on FAAH (Homo sapiens (Human)): pIC50 was 7.68

The molecule O=C(Nc1ccccc1)N1CCN(Cc2ccc3c(c2)Cc2ccccc2-3)CC1 on FAAH (Homo sapiens (Human)): pIC50 was 5.10

The molecule O=C(Nc1ccccc1)N1CCN(C2CCc3cc(Br)ccc3C2)CC1 (stereo not drawn) [Example L, reference compound] on FAAH (Homo sapiens (Human)): pIC50 was 6.43

The molecule O=C(Nc1ccccc1)N1CCN(Cc2cccc(Oc3cc(Cl)cc(Cl)c3)c2)CC1 on FAAH (Homo sapiens (Human)): pIC50 was 5.30

The molecule O=C(Nc1ccccc1)N1CCN(Cc2cccc(Br)n2)CC1 on FAAH (Homo sapiens (Human)): pIC50 was 5.22

The molecule O=C(Nc1ccccc1)N1CCN(Cc2cc3ccccc3s2)CC1 on FAAH (Homo sapiens (Human)): pIC50 was 7.72

The molecule O=C(Nc1ccc(F)cc1)N1CCN(Cc2ccc3ccccc3n2)CC1 on FAAH (Homo sapiens (Human)): pIC50 was 7.00

The molecule O=C(Nc1ccccc1)N1CCN(Cc2cccc(I)c2)CC1 [Example A, reference compound] on FAAH (Homo sapiens (Human)): pIC50 was 6.92

The molecule O=C(Nc1ccc(F)cc1)N1CCN(Cc2ccc3ccccc3c2)CC1 on FAAH (Homo sapiens (Human)): pIC50 was 7.27

The molecule Cc1cccc(CN2CCN(C(=O)Nc3ccccc3)CC2)c1 on FAAH (Homo sapiens (Human)): pIC50 was 5.70

The molecule O=C(Nc1ccccc1)N1CCN(Cc2ccc3c(c2)OC(F)(F)O3)CC1 on FAAH (Homo sapiens (Human)): pIC50 was 7.06

The molecule O=C(Nc1cccc(Cl)c1)N1CCN(Cc2ccc(Br)c(Br)c2)CC1 on FAAH (Homo sapiens (Human)): pIC50 was 6.62

The molecule CC(C)c1ccc(CN2CCN(C(=O)Nc3ccccc3)CC2)cc1 on FAAH (Homo sapiens (Human)): pIC50 was 6.66

The molecule COc1cccc(CN2CCN(C(=O)Nc3ccccc3)CC2)c1 on FAAH (Homo sapiens (Human)): pIC50 was 5.96

The molecule O=C(Nc1ccccc1)N1CCN(Cc2cccc(Oc3cccc(Cl)c3)c2)CC1 on FAAH (Homo sapiens (Human)): pIC50 was 6.80

The molecule O=C(Nc1ccccc1)N1CCN(Cc2ccc(F)c(Br)c2)CC1 on FAAH (Homo sapiens (Human)): pIC50 was 6.92

The molecule O=C(Nc1ccccc1)N1CCN(Cc2cccc(OCCCN3CCCCC3)c2)CC1 on FAAH (Homo sapiens (Human)): pIC50 was 5.70

The molecule Cc1cc(CN2CCN(C(=O)Nc3ccccc3)CC2)c(C)n1-c1cccc(C(F)(F)F)c1 on FAAH (Homo sapiens (Human)): pIC50 was 6.32

###

experimental.target: FAAH (Homo sapiens (Human), UniProt O00519)
Sequence (O00519 whole entry): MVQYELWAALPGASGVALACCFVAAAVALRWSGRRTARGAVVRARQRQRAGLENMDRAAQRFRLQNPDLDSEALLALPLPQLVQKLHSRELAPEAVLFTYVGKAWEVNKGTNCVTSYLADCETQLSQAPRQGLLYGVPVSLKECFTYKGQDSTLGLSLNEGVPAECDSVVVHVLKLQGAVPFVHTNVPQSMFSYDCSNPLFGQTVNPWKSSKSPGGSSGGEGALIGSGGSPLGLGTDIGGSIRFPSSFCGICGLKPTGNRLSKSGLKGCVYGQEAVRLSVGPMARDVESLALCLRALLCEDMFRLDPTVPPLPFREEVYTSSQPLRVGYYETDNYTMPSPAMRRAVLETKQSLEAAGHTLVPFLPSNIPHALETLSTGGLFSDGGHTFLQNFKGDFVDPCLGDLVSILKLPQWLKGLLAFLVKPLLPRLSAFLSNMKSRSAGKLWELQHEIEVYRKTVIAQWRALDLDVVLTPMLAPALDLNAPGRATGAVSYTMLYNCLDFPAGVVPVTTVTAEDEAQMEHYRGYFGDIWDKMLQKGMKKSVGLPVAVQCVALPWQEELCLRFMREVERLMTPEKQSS
protocol.description: Assay Method 1: FAAH assay, T84 cell homogenate, 3H-anandamide hydrolysis
Type: biochemical
condition.summary: 3H-AEA tracer 200 nM, 1 h at rt
Quick reference for pIC50 among some compounds
Reminder that pIC50 is minus the log10 of a molar concentration.

Solved entries (count: 6):
# compound, test.result
records = [
    ("O=C(Nc1ccccc1)N1CCN(Cc2cccc(Oc3ccc(Cl)c(Cl)c3)c2)CC1 [Example 61]", 7.70),
    ("Cc1cccc2cc(CN3CCN(C(=O)Nc4ccccc4)CC3)c(Cl)nc12 [Example 75]", 7.62),
    ("O=C(Nc1ccccc1)N1CCN(Cc2cnc3ccc(Cl)cc3c2)CC1 [Example 69]", 7.64),
    ("O=C(Nc1ccccc1)N1CCN(Cc2ccc3ccccc3c2)CC1 [Example 18]", 7.77),
    ("COc1ccccc1NC(=O)N1CCN(Cc2ccc(Br)c(Br)c2)CC1 [Example 91]", 6.89),
    ("CC(C)COc1ccc(CN2CCN(C(=O)Nc3ccccc3)CC2)cc1 [Example 124]", 5.74),
]

Input O=C(Nc1ccccc1)N1CCC(Cc2ccccc2)CC1 [Example H, reference compound] . Output pIC50: 6.57

Input O=C(Nc1ccccc1Cl)N1CCN(Cc2ccc(Br)c(Br)c2)CC1 [Example 93] . Output pIC50: 6.34

###

experimental.target: rat FAAH (Rattus norvegicus (Rat))
Sequence (P97612 whole entry): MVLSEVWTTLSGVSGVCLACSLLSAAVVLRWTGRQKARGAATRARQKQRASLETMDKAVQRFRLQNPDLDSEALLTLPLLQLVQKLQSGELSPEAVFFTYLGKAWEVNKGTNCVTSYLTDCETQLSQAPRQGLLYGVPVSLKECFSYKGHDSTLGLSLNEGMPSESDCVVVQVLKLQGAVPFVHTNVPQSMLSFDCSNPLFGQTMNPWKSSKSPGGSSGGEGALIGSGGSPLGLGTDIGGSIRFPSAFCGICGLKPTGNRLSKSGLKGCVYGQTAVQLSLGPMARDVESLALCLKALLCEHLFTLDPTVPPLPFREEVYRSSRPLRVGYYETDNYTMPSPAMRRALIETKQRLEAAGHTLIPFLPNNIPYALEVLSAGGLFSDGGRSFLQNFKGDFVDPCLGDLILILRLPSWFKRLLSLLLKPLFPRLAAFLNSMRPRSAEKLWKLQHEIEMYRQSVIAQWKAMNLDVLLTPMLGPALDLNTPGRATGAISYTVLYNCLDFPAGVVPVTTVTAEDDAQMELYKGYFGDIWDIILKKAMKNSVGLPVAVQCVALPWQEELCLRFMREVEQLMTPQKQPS
protocol.description: Assay Method 3: FAAH assay, cells transfected with rat FAAH
Type: biochemical
condition.summary: T84 or rat FAAH-transfected SK-N-MC cell homogenate, 3H-AEA tracer 80 nM, 1 h at rt
pIC50: −log10 of the molar value. Counter-ions that a name gives are not always drawn.
Parameter threshold = 6. Response is Criterion met when pIC50 meets or exceeds it, else Criterion not met.

# compound, classification
records = [
    ("O=C(Nc1ccccc1)N1CCN(Cc2ccc3ccccc3c2)CC1 [Example 18]", "Criterion met"),
    ("O=C(Nc1ncccn1)N1CCN(Cc2cnc3ccccc3c2)CC1 [Example 145]", "Criterion not met"),
    ("O=C(O)c1ccccc1NC(=O)N1CCN(Cc2cnc3ccccc3c2)CC1 [Example 140, (potassium salt)]", "Criterion not met"),
]

Say whether O=C(Nc1ccncc1)N1CCN(Cc2ccc3c(c2)OC(F)(F)O3)CC1 [Example 151] shows pIC50 of 6 or more. Criterion not met

Say whether O=C(Nc1ccccn1)N1CCN(Cc2ccc3c(c2)OCO3)CC1 [Example 149] shows pIC50 of 6 or more. Criterion not met

Say whether O=C(Nc1ccccc1)N1CCN(Cc2ccc3ccccc3c2O)CC1 [Example 59] shows pIC50 of 6 or more. Criterion met

###

Quick reference for IC50 among some compounds
experimental.target: FAAH (Homo sapiens (Human))
protocol.description: Assay Method 1: FAAH assay, T84 cell homogenate, 3H-anandamide hydrolysis
Assay type: biochemical
condition.summary: 3H-AEA tracer 200 nM, 1 h at rt
Express it in nM; write the number only.

Solved entries (count: 8):
# compound, IC50 (nM)
records = [
    ("Cc1cccc(NC(=O)N2CCC(Cc3ccccc3)CC2)c1 [Example 114]", 2300),
    ("O=C(Nc1ccccc1)N1CCN(Cc2ccc3cc[nH]c3c2)CC1 [Example 73]", 29),
    ("Cc1ccc(Oc2cccc(CN3CCN(C(=O)Nc4ccccc4)CC3)c2)cc1 [Example 62]", 18),
    ("COC(=O)c1ccc(Oc2cccc(CN3CCN(C(=O)Nc4ccccc4)CC3)c2)cc1 [Example 133]", 50),
    ("O=C(Nc1ccccc1F)N1CCN(Cc2ccc(Br)c(Br)c2)CC1 [Example 89]", 22),
    ("O=C(Nc1ccccc1)N1CCN(Cc2ccc(OC3CCCCC3)cc2)CC1 [Example 119]", 1000),
    ("O=C(Nc1cccc(F)c1)N1CCN(Cc2ccc(Br)c(Br)c2)CC1 [Example 85]", 19),
    ("O=C(Nc1ccccc1Cl)N1CCN(Cc2cnc3ccccc3c2)CC1 [Example 99]", 1600),
]

Input O=C(Nc1ccccc1)N1CCN(Cc2ccc(OCc3ccccc3)cc2)CC1 [Example 77] . Output IC50: 32
